Experiment: Half life in cynomolgus monkey at 3 mg/kg, iv
Assay type: ADME, organism-based, Macaca fascicularis
Settings: in vivo
measurementType: half-life (h)
# number only, unit h dropped from output

Problem: Which half-life is reported for this compound? C/C(=C\COc1ccccc1CN(C)C(=O)c1ccc(-c2ccco2)cc1)CCC(=O)O
Result: 1.8

* * *

Test: Cmax in CD-1 mouse at 10 mg/kg, po
Assay type: ADME, organism-based
Design: dose 10 mg/kg, route oral
Conditions: in vivo
measurementType: Cmax (ng/mL)
# number only, unit ng/mL dropped from output

Problem: Which Cmax is reported for this compound? C/C(=C\COc1ccccc1CN(C)C(=O)c1ccc(-c2ccco2)cc1)CCC(=O)O
Result: 11100

Reference source: ChEMBL document CHEMBL4177669
